- experiment.notes: In vitro metabolism in hepatic microsomes, monkey
- Type: in vitro ADME
- experimental.context: male monkeys, read-out: t1/2 in hepatic microsomes
- Procedure: In vitro metabolism of 1-[2-dimethylamino-1-(4-phenol)ethyl]-cis-1,4-cyclohexandiol was conducted in the hepatic microsomes of Sprague-Dawley rats, male dogs, male monkeys and mixed male and female humans to characterize metabolic stability and identification of metabolites. 1-[2-dimethylamino-1-(4-phenol)ethyl]-cis-1,4-cyclohexandiol was stable (t1/2>60 minutes) in hepatic microsomes indicating Phase I and II metabolism was minimal in all species.
quantity.name: half-life

[[record]]
compound = "CN(C)CC(c1ccc(O)cc1)C1(O)CCC(O)CC1 (stereo not shown)"
result = "> 1 h"


* * *

- experiment.notes: Pharmacokinetics in dog
- Assay type: in vivo
- experimental.context: plasma, male dogs, single 2.5 mg/kg IV bolus, read-out: apparent volume of distribution (VSS)
- Experimental: Preclinical pharmacokinetics of 1-[2-dimethylamino-1-(4-phenol)ethyl]-cis-1,4-cyclohexandiol was determined after a single 2.5 mg/kg IV bolus and 7.5 mg/kg oral dose in male dogs. […] The oral bioavailability was high (60%).
quantity.name: Vd

[[record]]
compound = "CN(C)CC(c1ccc(O)cc1)C1(O)CCC(O)CC1 (stereo not shown)"
quantity_name = "Vd"
result = "1.9 L/kg"


* * *

- experiment.notes: Pharmacokinetics in dog
- Format: in vivo
- experimental.context: plasma, male dogs, 7.5 mg/kg oral vs 2.5 mg/kg IV
quantity.name: bioavailability (%)

[[record]]
molecule = "CN(C)CC(c1ccc(O)cc1)C1(O)CCC(O)CC1 (stereo not shown)"
number = 60

